Biological target: T1, His9-hMSR1 (human MSR1 extracellular domain) (Homo sapiens, UniProt P21757)
T1 construct: human MSR1 extracellular domain expressed with a N-terminal nonahistidine tag; His9 (nonahistidine) (N); purchased R&D Systems 2708-MS
T1 sequence (P21757 77-451 limits assumed): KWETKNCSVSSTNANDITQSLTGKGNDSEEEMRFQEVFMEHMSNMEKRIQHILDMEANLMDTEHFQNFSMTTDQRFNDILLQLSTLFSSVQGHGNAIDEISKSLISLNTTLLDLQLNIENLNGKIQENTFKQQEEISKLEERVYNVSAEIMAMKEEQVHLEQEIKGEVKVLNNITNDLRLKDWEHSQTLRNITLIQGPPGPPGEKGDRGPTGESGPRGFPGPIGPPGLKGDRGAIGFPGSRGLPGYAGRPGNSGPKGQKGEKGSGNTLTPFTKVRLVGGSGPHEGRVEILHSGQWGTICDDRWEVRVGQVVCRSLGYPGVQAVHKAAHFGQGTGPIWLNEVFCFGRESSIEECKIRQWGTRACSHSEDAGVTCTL
Test: Biacore surface plasmon resonance binding kinetics of anti-MSR1 mAbs, antibody-capture format
Details: 25° C.; analyte His9-hMSR1; * = no dissociation observed, kd manually fixed at 1.00E−05; NB = no binding observed
Protocol: Binding affinities and kinetic constants of human anti-MSR1 antibodies for different MSR1 reagents were determined by real-time surface plasmon resonance (Biacore 4000). […] The association rate (ka) and dissociation rate (kd) were determined by fitting the real-time binding sensorgrams to a 1:1 binding model with mass transport limitation using Scrubber 2.0c curve-fitting software. […]
measuredQuantity: kd (s⁻¹)
Your answer should be a plain number; it is taken to be in s⁻¹.

Ask | Entry H1H27739P-N297Q: anti-MSR1 antibody "made with an N297Q single point mutation in human Fcγ portion" (antibody, V domains shown) VH: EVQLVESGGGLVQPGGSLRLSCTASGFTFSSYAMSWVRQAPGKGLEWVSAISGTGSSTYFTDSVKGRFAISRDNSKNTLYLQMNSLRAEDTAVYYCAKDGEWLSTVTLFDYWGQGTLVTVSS VL: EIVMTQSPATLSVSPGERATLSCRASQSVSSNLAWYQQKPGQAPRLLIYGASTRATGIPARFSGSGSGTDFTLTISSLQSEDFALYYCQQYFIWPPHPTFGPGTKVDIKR needs its kd filled in; supply it.
Reply | 0.00103

Ask | Entry H1H21227N-N297Q: "modified versions of 21227N (H1H21227N-N297Q and H1H21227N-N297D)"; anti-MSR1 antibody "with a N297Q single point mutation" (antibody, V domains shown) VH: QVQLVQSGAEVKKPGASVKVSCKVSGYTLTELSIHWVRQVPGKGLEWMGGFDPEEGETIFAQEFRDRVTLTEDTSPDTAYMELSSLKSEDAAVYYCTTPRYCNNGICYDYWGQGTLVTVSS VL: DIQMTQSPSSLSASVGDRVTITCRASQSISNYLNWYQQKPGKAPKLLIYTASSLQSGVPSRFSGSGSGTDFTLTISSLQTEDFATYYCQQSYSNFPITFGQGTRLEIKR needs its kd filled in; supply it.
Reply | 4.89e-05
